Readings of IC50 for the listed binders
target: T1, human IgEλ (U266 derived) (human, UniProt P01854-1 1-428); test: HTRF competition: scFv against Eu-cryptate human IgE binding to human FcεRI-Fc
T1 construct: Whole IgE purified from U266 cells (Ikeyama et al. 1986); labelled with europium cryptate or biotin in some assays; also called human IgE (U266-derived); human IgE lambda
T1 sequence (P01854 other isoform, or with tags, fused parts or gaps): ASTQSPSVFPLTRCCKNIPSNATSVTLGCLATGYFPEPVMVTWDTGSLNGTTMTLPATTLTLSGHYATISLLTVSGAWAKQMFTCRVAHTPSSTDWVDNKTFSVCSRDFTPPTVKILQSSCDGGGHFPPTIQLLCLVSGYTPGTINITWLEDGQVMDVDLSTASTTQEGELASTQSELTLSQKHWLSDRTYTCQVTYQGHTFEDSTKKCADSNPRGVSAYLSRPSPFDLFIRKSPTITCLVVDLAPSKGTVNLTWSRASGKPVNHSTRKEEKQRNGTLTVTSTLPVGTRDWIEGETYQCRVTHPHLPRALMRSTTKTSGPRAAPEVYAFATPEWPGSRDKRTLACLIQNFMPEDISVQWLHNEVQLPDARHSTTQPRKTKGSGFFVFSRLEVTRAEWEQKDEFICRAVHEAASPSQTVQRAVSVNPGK
Answer in nM, number only, no unit symbol.

Below, each entry is followed by its recorded IC50 result.
[[record]]
binder = "Antibody 28 scFv (scFv, V domains shown, Purified scFv, non-germlined) VH: QVQLVQSGAEVKKPGATVKLSCKVYGYIFTDYNIYWVRQAPGKGLEWMGLIDPDNGETFYAEKFQGRATMTADTSSDRAYMELTSLTFEDTATYYCATVMGKWIKGGYDYWGRGTLVTVSS VL: QSVLTQPPSVSGAPGQRVTISCTGSSSNIGAGYDVHWYQQLPGTAPKLLIYDNFNRPSGVPDRFSGSKSGTSASLAIIGLQTEDEADYYCQSYDSSSLHSPFGTGTKLTVL"
measurementunits = "nM"
measurednumber = 1

[[record]]
binder = "Antibody 7 scFv (scFv, V domains shown, Purified scFv, non-germlined) VH: QVQLVQSGAEVKKPGATVKLSCKVYGYIFTDYNIYWVRQAPGKGLEWMGLIDPDNGETFYAEKFQGRATMTADTSSDRAYMELTSLTFEDTATYYCATVTLKSAKGGYDYWGRGTLVTVSS VL: QSVLTQPPSVSGAPGQRVTISCTGSSSNIGAGYDVHWYQQLPGTAPKLLIYDNFNRPSGVPDRFSGSKSGTSASLAIIGLQTEDEADYYCQSYDSDRRNSPFGTGTKLTVL"
measurementunits = "nM"
measurednumber = 9

[[record]]
binder = "Antibody 15 scFv (scFv, V domains shown, Purified scFv, non-germlined) VH: QVQLVQSGAEVKKPGATVKLSCKVYGYIFTDYNIYWVRQAPGKGLEWMGLIDPDNGETFYAEKFQGRATMTADTSSDRAYMELTSLTFEDTATYYCATVTLKTAKGGYDYWGRGTLVTVSS VL: QSVLTQPPSVSGAPGQRVTISCTGSSSNIGAGYDVHWYQQLPGTAPKLLIYDNFNRPSGVPDRFSGSKSGTSASLAIIGLQTEDEADYYCQSYDSHKGYGGFGTGTKLTVL"
measurementunits = "nM"
measurednumber = 7

[[record]]
binder = "Antibody 27 scFv (scFv, V domains shown, Purified scFv, non-germlined) VH: QVQLVQSGAEVKKPGATVKLSCKVYGYIFTDYNIYWVRQAPGKGLEWMGLIDPDNGETFYAEKFQGRATMTADTSSDRAYMELTSLTFEDTATYYCATVSLKEAKGGYDYWGRGTLVTVSS VL: QSVLTQPPSVSGAPGQRVTISCTGSSSNIGAGYDVHWYQQLPGTAPKLLIYDNFNRPSGVPDRFSGSKSGTSASLAIIGLQTEDEADYYCQSYDSPTQTSPFGTGTKLTVL"
measurementunits = "nM"
measurednumber = 9


Consider Antibody 18 scFv (scFv, V domains shown, Purified scFv, non-germlined) VH: QVQLVQSGAEVKKPGATVKLSCKVYGYIFTDYNIYWVRQAPGKGLEWMGLIDPDNGETFYAEKFQGRATMTADTSSDRAYMELTSLTFEDTATYYCATVLLRSAKGGYDYWGRGTLVTVSS VL: QSVLTQPPSVSGAPGQRVTISCTGSSSNIGAGYDVHWYQQLPGTAPKLLIYDNFNRPSGVPDRFSGSKSGTSASLAIIGLQTEDEADYYCQSYDSHLQLSPFGTGTKLTVL . Its measured IC50 is 11
